test: Half life in F344/N JcL-rnu athymic rat at 5 mg/kg, po measured upto 72 hrs by HPLC-MS/MS analysis; assay type: ADME, organism-based; settings: in vivo
Recorded endpoint: half-life (h)
Numbers only, in h.

// half-life value for COc1cc2nccc(Oc3ccc(NC(=O)Nc4cc(C)on4)c(Cl)c3)c2cc1OC : 7.94

* * *

assay: Tmax in F344/N JcL-rnu athymic rat at 0.04 mg/kg, po measured upto 72 hrs by HPLC-MS/MS analysis; assay type: ADME, organism-based; conditions: in vivo
Recorded endpoint: Tmax

// Tmax value for COc1cc2nccc(Oc3ccc(NC(=O)Nc4cc(C)on4)c(Cl)c3)c2cc1OC [TIVOZANIB] : 3.63 h

* * *

assay: Cmax in F344/N JcL-rnu athymic rat at 1 mg/kg, po measured upto 72 hrs by HPLC-MS/MS analysis; format: ADME, organism-based; details: in vivo
Recorded endpoint: Cmax (ng/mL)
Numbers only, in ng/mL.

// Cmax value for COc1cc2nccc(Oc3ccc(NC(=O)Nc4cc(C)on4)c(Cl)c3)c2cc1OC : 484

* * *

assay: Cmax in F344/N JcL-rnu athymic rat at 0.2 mg/kg, po measured upto 72 hrs by HPLC-MS/MS analysis; type: ADME, organism-based; conditions: in vivo
Recorded endpoint: Cmax (ng/mL)
One number for each entry, in ng/mL.

// Cmax value for COc1cc2nccc(Oc3ccc(NC(=O)Nc4cc(C)on4)c(Cl)c3)c2cc1OC : 108

* * *

test: Half life in F344/N JcL-rnu athymic rat at 0.2 mg/kg, po measured upto 72 hrs by HPLC-MS/MS analysis; type: ADME, organism-based; details: in vivo
Recorded endpoint: half-life (h)
Numbers only, in h.

// half-life value for COc1cc2nccc(Oc3ccc(NC(=O)Nc4cc(C)on4)c(Cl)c3)c2cc1OC [TIVOZANIB] : 7.78

* * *

target: Insulin-like growth factor 1 receptor (Homo sapiens)
Sequence (P08069 31-736 limits assumed): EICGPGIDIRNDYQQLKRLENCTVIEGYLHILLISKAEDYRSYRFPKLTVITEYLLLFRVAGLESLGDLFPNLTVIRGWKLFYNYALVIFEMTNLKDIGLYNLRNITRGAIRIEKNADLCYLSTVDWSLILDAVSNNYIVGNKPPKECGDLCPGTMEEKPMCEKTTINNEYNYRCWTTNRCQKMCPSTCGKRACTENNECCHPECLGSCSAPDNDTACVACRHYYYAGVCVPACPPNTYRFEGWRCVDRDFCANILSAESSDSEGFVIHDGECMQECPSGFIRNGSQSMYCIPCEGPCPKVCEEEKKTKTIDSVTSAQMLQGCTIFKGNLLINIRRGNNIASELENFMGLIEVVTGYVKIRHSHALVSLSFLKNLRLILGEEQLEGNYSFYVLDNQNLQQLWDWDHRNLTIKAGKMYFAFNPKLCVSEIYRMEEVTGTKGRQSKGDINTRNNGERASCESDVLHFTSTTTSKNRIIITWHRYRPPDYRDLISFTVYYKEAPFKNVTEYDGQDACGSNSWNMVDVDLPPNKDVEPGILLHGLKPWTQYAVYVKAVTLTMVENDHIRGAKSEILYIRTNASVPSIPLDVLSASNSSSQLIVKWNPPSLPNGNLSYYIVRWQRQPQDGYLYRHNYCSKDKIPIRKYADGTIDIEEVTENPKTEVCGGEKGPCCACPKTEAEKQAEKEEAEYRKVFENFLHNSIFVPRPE
Sequence (P08069 741-1367 limits assumed): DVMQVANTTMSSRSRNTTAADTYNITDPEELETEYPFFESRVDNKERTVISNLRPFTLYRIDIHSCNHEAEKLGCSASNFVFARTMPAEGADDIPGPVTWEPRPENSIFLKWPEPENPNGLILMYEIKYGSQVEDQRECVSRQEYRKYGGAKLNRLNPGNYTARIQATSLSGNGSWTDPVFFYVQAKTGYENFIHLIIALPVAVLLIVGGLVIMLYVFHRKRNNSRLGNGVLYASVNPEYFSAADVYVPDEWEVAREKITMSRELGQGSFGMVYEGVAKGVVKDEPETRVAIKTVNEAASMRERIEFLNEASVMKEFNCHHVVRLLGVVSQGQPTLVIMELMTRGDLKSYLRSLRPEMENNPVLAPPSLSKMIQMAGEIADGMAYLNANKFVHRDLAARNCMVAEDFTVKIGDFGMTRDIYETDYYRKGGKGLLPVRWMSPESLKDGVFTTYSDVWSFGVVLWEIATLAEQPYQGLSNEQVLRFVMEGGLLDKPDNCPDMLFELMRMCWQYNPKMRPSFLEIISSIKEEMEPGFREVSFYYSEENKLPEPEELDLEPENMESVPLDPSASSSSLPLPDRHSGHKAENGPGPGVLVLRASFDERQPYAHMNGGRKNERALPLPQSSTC
Recorded endpoint: IC50

// IC50 value for COc1cc2nccc(Oc3ccc(NC(=O)Nc4cc(C)on4)c(Cl)c3)c2cc1OC [TIVOZANIB] : > 1 µM

* * *

biological target: Mitogen-activated protein kinase 1 (Homo sapiens); experiment: Inhibition of ERK2 phosphorylation in VEGF-stimulated serum-starved human HUVEC cells by immunoblotting analysis
Sequence (P28482 whole entry): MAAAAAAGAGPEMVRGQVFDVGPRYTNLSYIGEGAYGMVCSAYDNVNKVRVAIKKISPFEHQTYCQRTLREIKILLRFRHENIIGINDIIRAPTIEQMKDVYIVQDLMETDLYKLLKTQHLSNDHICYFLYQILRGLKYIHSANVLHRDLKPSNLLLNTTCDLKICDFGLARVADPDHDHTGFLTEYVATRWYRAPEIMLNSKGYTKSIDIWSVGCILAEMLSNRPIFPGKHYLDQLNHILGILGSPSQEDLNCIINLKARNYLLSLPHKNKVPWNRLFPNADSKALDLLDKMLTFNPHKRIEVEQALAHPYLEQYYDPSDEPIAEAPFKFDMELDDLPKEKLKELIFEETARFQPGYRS
Recorded endpoint: IC50

// IC50 value for COc1cc2nccc(Oc3ccc(NC(=O)Nc4cc(C)on4)c(Cl)c3)c2cc1OC : 0.18 nM

* * *

assay: Half life in F344/N JcL-rnu athymic rat at 1 mg/kg, po measured upto 72 hrs by HPLC-MS/MS analysis; type: ADME, organism-based; details: in vivo
Recorded endpoint: half-life (h)
Answers are plain numbers, in h.

// half-life value for COc1cc2nccc(Oc3ccc(NC(=O)Nc4cc(C)on4)c(Cl)c3)c2cc1OC : 8.13

* * *

assay: Apparent oral clearance in F344/N JcL-rnu athymic rat at 0.2 mg/kg, po measured upto 72 hrs by HPLC-MS/MS analysis; type: ADME, organism-based; settings: in vivo
Recorded endpoint: CL/F (mL/min/kg)
One number for each entry, in mL/min/kg.

// CL/F value for COc1cc2nccc(Oc3ccc(NC(=O)Nc4cc(C)on4)c(Cl)c3)c2cc1OC : 2.07

* * *

target: Platelet-derived growth factor receptor beta (Homo sapiens, UniProt P09619); assay: Inhibition of PDGFR-beta (unknown origin) in presence of ATP
Recorded endpoint: pIC50
Give bare numbers, as −log10 of the molar value.

// pIC50 value for COc1cc2nccc(Oc3ccc(NC(=O)Nc4cc(C)on4)c(Cl)c3)c2cc1OC : 7.31

* * *

target: UniProt:P29323
Sequence (P29323 whole entry): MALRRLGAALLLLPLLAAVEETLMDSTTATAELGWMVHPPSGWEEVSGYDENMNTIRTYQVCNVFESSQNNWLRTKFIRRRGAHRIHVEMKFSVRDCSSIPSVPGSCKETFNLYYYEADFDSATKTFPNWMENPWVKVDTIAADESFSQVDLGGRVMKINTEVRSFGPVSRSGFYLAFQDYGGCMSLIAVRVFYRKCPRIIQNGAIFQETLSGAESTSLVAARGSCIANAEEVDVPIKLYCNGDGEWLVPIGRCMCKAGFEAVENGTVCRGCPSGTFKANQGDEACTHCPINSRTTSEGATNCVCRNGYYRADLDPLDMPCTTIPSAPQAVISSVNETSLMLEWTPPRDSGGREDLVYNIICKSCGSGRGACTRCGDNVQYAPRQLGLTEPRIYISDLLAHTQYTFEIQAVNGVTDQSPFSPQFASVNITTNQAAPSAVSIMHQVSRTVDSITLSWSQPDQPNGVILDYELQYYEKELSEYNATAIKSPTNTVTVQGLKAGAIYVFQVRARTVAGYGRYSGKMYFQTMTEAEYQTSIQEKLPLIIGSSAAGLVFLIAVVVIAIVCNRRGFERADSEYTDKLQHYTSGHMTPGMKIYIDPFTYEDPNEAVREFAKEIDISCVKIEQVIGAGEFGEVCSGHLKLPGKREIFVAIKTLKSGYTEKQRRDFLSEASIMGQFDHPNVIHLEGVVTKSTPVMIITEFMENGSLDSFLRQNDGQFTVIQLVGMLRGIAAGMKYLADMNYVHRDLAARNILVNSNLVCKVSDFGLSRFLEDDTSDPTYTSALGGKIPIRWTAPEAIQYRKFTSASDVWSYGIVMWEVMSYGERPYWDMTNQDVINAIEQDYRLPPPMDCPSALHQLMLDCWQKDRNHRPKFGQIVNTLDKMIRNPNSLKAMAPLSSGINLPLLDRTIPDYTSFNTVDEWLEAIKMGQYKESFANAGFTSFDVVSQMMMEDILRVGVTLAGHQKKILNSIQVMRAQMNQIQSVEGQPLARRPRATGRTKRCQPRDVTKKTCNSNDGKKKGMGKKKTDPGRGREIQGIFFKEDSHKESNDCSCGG
Recorded endpoint: IC50 (nM)
Numbers only, in nM.

// IC50 value for COc1cc2nccc(Oc3ccc(NC(=O)Nc4cc(C)on4)c(Cl)c3)c2cc1OC : 24

* * *

assay: Half life in F344/N JcL-rnu athymic rat at 0.04 mg/kg, po measured upto 72 hrs by HPLC-MS/MS analysis; assay type: ADME, organism-based; conditions: in vivo
Recorded endpoint: half-life

// half-life value for COc1cc2nccc(Oc3ccc(NC(=O)Nc4cc(C)on4)c(Cl)c3)c2cc1OC : 9.25 h

* * *

assay: Apparent oral volume of distribution in F344/N JcL-rnu athymic rat at 0.2 mg/kg, po measured upto 72 hrs by HPLC-MS/MS analysis; assay type: ADME, organism-based; conditions: in vivo
Recorded endpoint: Vd/F (L/kg)
Answers are plain numbers, in L/kg.

// Vd/F value for COc1cc2nccc(Oc3ccc(NC(=O)Nc4cc(C)on4)c(Cl)c3)c2cc1OC : 1.4

* * *

experiment: Tmax in F344/N JcL-rnu athymic rat at 0.2 mg/kg, po measured upto 72 hrs by HPLC-MS/MS analysis; format: ADME, organism-based; conditions: in vivo
Recorded endpoint: Tmax (h)
Numbers only, in h.

// Tmax value for COc1cc2nccc(Oc3ccc(NC(=O)Nc4cc(C)on4)c(Cl)c3)c2cc1OC : 2.63

* * *

target: Insulin receptor (Homo sapiens)
Recorded endpoint: IC50

// IC50 value for COc1cc2nccc(Oc3ccc(NC(=O)Nc4cc(C)on4)c(Cl)c3)c2cc1OC : > 1000 nM

* * *

assay: Tmax in F344/N JcL-rnu athymic rat at 1 mg/kg, po measured upto 72 hrs by HPLC-MS/MS analysis; assay type: ADME, organism-based; conditions: in vivo
Recorded endpoint: Tmax (h)
Numbers only, in h.

// Tmax value for COc1cc2nccc(Oc3ccc(NC(=O)Nc4cc(C)on4)c(Cl)c3)c2cc1OC : 4.25

* * *

target: Mitogen-activated protein kinase 3 (Homo sapiens, UniProt P27361); assay: Inhibition of ERK1 phosphorylation in VEGF-stimulated serum-starved human HUVEC cells by immunoblotting analysis
Sequence (P27361 whole entry): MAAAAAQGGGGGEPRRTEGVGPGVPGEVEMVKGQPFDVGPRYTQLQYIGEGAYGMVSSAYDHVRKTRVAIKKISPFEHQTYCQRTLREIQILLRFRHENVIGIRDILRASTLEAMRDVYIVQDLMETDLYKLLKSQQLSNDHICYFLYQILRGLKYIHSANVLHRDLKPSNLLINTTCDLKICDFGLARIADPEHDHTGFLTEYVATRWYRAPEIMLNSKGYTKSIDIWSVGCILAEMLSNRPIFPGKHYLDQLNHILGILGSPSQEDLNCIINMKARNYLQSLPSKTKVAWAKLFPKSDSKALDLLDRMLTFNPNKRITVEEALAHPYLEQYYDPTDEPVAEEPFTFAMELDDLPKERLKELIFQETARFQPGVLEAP
Recorded endpoint: pIC50
Numbers only, as −log10 of the molar value.

Let me check: COc1cc2nccc(Oc3ccc(NC(=O)Nc4cc(C)on4)c(Cl)c3)c2cc1OC , system Mitogen-activated protein kinase 3 (Homo sapiens, UniProt P27361), measured pIC50 is 9.89

* * *

assay: Apparent oral volume of distribution in F344/N JcL-rnu athymic rat at 1 mg/kg, po measured upto 72 hrs by HPLC-MS/MS analysis; assay type: ADME, organism-based; settings: in vivo
Recorded endpoint: Vd/F (L/kg)
Numbers only, in L/kg.

// Vd/F value for COc1cc2nccc(Oc3ccc(NC(=O)Nc4cc(C)on4)c(Cl)c3)c2cc1OC [TIVOZANIB] : 1.54

* * *

assay: AUC (0-infinity) in F344/N JcL-rnu athymic rat at 1 mg/kg, po measured upto 72 hrs by HPLC-MS/MS analysis; assay type: ADME, organism-based; conditions: in vivo
Recorded endpoint: AUC(0-inf)
Answer format reminder: number followed by unit.

// AUC(0-inf) value for COc1cc2nccc(Oc3ccc(NC(=O)Nc4cc(C)on4)c(Cl)c3)c2cc1OC : 7640 ng·h/mL

* * *

experiment: Cmax in F344/N JcL-rnu athymic rat at 5 mg/kg, po measured upto 72 hrs by HPLC-MS/MS analysis; format: ADME, organism-based; settings: in vivo
Recorded endpoint: Cmax (ng/mL)
One number for each entry, in ng/mL.

// Cmax value for COc1cc2nccc(Oc3ccc(NC(=O)Nc4cc(C)on4)c(Cl)c3)c2cc1OC : 2820

* * *

target: Focal adhesion kinase 1 (Homo sapiens, UniProt Q05397)
Sequence (Q05397 whole entry): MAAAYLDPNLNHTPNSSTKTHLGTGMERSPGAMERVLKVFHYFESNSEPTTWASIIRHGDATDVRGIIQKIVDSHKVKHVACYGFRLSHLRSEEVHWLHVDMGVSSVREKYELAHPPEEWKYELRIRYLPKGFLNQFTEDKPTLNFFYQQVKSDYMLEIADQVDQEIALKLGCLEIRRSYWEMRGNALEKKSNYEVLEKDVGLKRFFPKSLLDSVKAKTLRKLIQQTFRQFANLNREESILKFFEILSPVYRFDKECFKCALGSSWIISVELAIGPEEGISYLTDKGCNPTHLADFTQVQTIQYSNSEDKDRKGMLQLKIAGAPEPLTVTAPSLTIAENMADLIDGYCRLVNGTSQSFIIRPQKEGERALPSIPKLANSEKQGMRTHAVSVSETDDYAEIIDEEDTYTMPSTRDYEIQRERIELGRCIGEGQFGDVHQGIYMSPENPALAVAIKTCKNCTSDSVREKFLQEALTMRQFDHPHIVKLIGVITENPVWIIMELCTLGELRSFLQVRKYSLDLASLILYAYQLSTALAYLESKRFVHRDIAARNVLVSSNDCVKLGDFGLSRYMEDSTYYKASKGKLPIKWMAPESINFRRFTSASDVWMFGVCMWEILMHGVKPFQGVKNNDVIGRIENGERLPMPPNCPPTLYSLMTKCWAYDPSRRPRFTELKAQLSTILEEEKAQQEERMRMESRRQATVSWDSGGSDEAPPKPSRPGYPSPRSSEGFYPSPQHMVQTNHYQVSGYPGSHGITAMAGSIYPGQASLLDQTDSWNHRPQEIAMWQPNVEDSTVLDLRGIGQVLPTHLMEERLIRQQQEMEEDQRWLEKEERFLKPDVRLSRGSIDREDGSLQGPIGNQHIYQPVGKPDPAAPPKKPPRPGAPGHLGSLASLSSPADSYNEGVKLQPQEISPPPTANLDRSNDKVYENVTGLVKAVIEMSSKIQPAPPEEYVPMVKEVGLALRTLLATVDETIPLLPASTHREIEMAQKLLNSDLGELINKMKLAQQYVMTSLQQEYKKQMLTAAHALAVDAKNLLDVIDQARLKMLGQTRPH
pIC50: −log10 of the molar value.
Recorded endpoint: pIC50

// pIC50 value for COc1cc2nccc(Oc3ccc(NC(=O)Nc4cc(C)on4)c(Cl)c3)c2cc1OC [TIVOZANIB] : < 6.00

* * *

assay: Maximum concentration at steady state in F344/N JcL-rnu athymic rat at 0.2 mg/kg/day, po measured upto 72 hrs by HPLC-MS/MS analysis; type: ADME, organism-based; settings: in vivo
Recorded endpoint: Cmax (µg/mL)
Numbers only, in µg/mL.

// Cmax value for COc1cc2nccc(Oc3ccc(NC(=O)Nc4cc(C)on4)c(Cl)c3)c2cc1OC : 0.124

* * *

assay: Tmax in F344/N JcL-rnu athymic rat at 5 mg/kg, po measured upto 72 hrs by HPLC-MS/MS analysis; assay type: ADME, organism-based; details: in vivo
Recorded endpoint: Tmax
Answer format reminder: number followed by unit.

// Tmax value for COc1cc2nccc(Oc3ccc(NC(=O)Nc4cc(C)on4)c(Cl)c3)c2cc1OC : 3.5 h
